# test_description: Antagonist activity at human D3 receptor expressed in HEK293 cells assessed as inhibition of quinpirole-stimulated mitogenesis
pIC50: −log10 of the molar value.
recorded_metric: pIC50

Answered examples (5):
[Q] GET /values?readout=pIC50&item= COc1ccccc1N1CCN(CC(O)CCNC(=O)c2cc3cc(I)ccc3o2)CC1 (configuration not stated)
[A] 7.84

[Q] Item COc1ccc2[nH]c(C(=O)NCCC(O)CN3CCN(c4ccccc4OC)CC3)cc2c1 (configuration not stated) has what recorded pIC50?
[A] 8.80

[Q] Look up pIC50: CCCOc1ccccc1N1CCN(CC(O)CCNC(=O)c2cc3ccccc3[nH]2)CC1 (configuration not stated)
[A] 8.19

[Q] Which pIC50 is listed for COc1ccccc1N1CCN(CCCCNC(=O)c2cc3cc(I)ccc3o2)CC1 ?
[A] 7.64

[Q] pIC50 for COc1ccccc1N1CCN(CC(O)CCNC(=O)c2cc3ccccc3[nH]2)CC1 (configuration not stated) ?
[A] 7.92

1 = COc1ccccc1N1CCN(CC(O)CCNC(=O)c2cc3ccccc3s2)CC1 (configuration not stated)
2 = COc1ccc2[nH]c(C(=O)NCCC(O)CN3CCN(c4cccc(Cl)c4Cl)CC3)cc2c1 (configuration not stated)
[Q] Which value of pIC50 is greater, the one for 1 or the one for 2 ? Record your answer as the label of the chosen record.
[A] 2
